Measured values drawn from paper PMC6611794 for this set.

- assay-comment: Liposomal membrane disruption assay (carboxyfluorescein LUVs)
- Type: biochemical
- experimental-parameters: PC/PG LUVs, 2nd experiment; read-out: EC50 PC/PG 2nd
Where a SMILES comes first, the peptide text is derived from it. Bridges are numbered along the chain shown (N, C = ends). [ ]: non-standard residue; d: D form. The star is where a group is joined. Hexanoyl(3R-OH,5-Me) = CC(C)C[C@@H](O)CC(=O)*; dNMeF = CN[C@H](Cc1ccccc1)C(=O)O; dOrn = NCCC[C@@H](N)C(=O)O
recorded-endpoint: EC50

## Task May I ask what EC50 has been recorded for CC[C@H](C)[C@@H]1NC(=O)[C@@H](Cc2c[nH]c3ccccc23)NC(=O)[C@@H](CCC(N)=O)NC(=O)[C@H](CCC(=O)O)NC(=O)[C@@H](CCCNC(=N)N)NC(=O)[C@H](CC(C)C)NC(=O)[C@@H](Cc2ccccc2)N(C)C(=O)CNC(=O)[C@H](C)NC(=O)[C@@H](CCCNC(=N)N)NC(=O)[C@@H](NC(=O)C[C@H](O)CC(C)C)[C@@H](C)OC(=O)[C@H]([C@@H](C)O)NC1=O [Peptide A1] ({Hexanoyl(3R-OH,5-Me)}-T[dR]AG[dNMeF]L[dR]E[dQ][dW]IT; ester 1-C) ?
## Result 1090 nM

## Task Give the measured EC50 of CC[C@H](C)[C@@H]1NC(=O)[C@@H](Cc2c[nH]c3ccccc23)NC(=O)[C@@H](CCCN)NC(=O)[C@H](CCC(=O)O)NC(=O)[C@@H](CCCNC(=N)N)NC(=O)[C@H](CC(C)C)NC(=O)[C@@H](Cc2ccccc2)N(C)C(=O)CNC(=O)[C@H](CC(N)=O)NC(=O)[C@@H](CCCNC(=N)N)NC(=O)[C@@H](NC(=O)C[C@H](O)CC(C)C)[C@@H](C)OC(=O)[C@H]([C@@H](C)O)NC1=O [Peptide A14] ({Hexanoyl(3R-OH,5-Me)}-T[dR]NG[dNMeF]L[dR]E[dOrn][dW]IT; ester 1-C) .
## Result > 1500 nM

## Task Which EC50 is listed for CC[C@H](C)[C@@H]1NC(=O)[C@@H](Cc2c[nH]c3ccccc23)NC(=O)[C@@H](C(C)C)NC(=O)[C@H](CCC(=O)O)NC(=O)[C@@H](CCCNC(=N)N)NC(=O)[C@H](CC(C)C)NC(=O)[C@@H](Cc2ccccc2)N(C)C(=O)CNC(=O)[C@H](CCCCN)NC(=O)[C@@H](CCCNC(=N)N)NC(=O)[C@@H](NC(=O)C[C@H](O)CC(C)C)[C@@H](C)OC(=O)[C@H]([C@@H](C)O)NC1=O [Peptide A3] ({Hexanoyl(3R-OH,5-Me)}-T[dR]KG[dNMeF]L[dR]E[dV][dW]IT; ester 1-C) ?
## Result 900 nM

## Task What does the data say about its EC50? Entry: CC[C@H](C)[C@@H]1NC(=O)[C@@H](Cc2c[nH]c3ccccc23)NC(=O)[C@@H](CCC(N)=O)NC(=O)[C@H](CCC(=O)O)NC(=O)[C@@H](CCCNC(=N)N)NC(=O)[C@H](CC(C)C)NC(=O)[C@@H](Cc2ccccc2)N(C)C(=O)CNC(=O)[C@H](CO)NC(=O)[C@@H](CCCNC(=N)N)NC(=O)[C@@H](NC(=O)C[C@H](O)CC(C)C)[C@@H](C)OC(=O)[C@H]([C@@H](C)O)NC1=O [Peptide 1, Lysocin E] ({Hexanoyl(3R-OH,5-Me)}-T[dR]SG[dNMeF]L[dR]E[dQ][dW]IT; ester 1-C)
## Result 689 nM

## Task Reported EC50 for CC[C@H](C)[C@@H]1NC(=O)[C@@H](Cc2c[nH]c3ccccc23)NC(=O)[C@@H](CCCN)NC(=O)[C@H](CCC(=O)O)NC(=O)[C@@H](CCCNC(=N)N)NC(=O)[C@H](CC(C)C)NC(=O)[C@@H](Cc2ccccc2)N(C)C(=O)CNC(=O)[C@H](CC(=O)O)NC(=O)[C@@H](CCCNC(=N)N)NC(=O)[C@@H](NC(=O)C[C@H](O)CC(C)C)[C@@H](C)OC(=O)[C@H]([C@@H](C)O)NC1=O [Peptide A16] ({Hexanoyl(3R-OH,5-Me)}-T[dR]DG[dNMeF]L[dR]E[dOrn][dW]IT; ester 1-C) : what is it?
## Result > 1500 nM

## Task What does the record list as EC50 for CC[C@H](C)[C@@H]1NC(=O)[C@@H](Cc2c[nH]c3ccccc23)NC(=O)[C@@H](C(C)C)NC(=O)[C@H](CCC(=O)O)NC(=O)[C@@H](CCCNC(=N)N)NC(=O)[C@H](CC(C)C)NC(=O)[C@@H](Cc2ccccc2)N(C)C(=O)CNC(=O)[C@H](C)NC(=O)[C@@H](CCCNC(=N)N)NC(=O)[C@@H](NC(=O)C[C@H](O)CC(C)C)[C@@H](C)OC(=O)[C@H]([C@@H](C)O)NC1=O [Peptide A2] ({Hexanoyl(3R-OH,5-Me)}-T[dR]AG[dNMeF]L[dR]E[dV][dW]IT; ester 1-C) ?
## Result 680 nM

## Task Bench note: what EC50 did CC[C@H](C)[C@@H]1NC(=O)[C@@H](Cc2c[nH]c3ccccc23)NC(=O)[C@@H](Cc2ccc(O)cc2)NC(=O)[C@H](CCC(=O)O)NC(=O)[C@@H](CCCNC(=N)N)NC(=O)[C@H](CC(C)C)NC(=O)[C@@H](Cc2ccccc2)N(C)C(=O)CNC(=O)[C@H](CC(=O)O)NC(=O)[C@@H](CCCNC(=N)N)NC(=O)[C@@H](NC(=O)C[C@H](O)CC(C)C)[C@@H](C)OC(=O)[C@H]([C@@H](C)O)NC1=O [Peptide A17] ({Hexanoyl(3R-OH,5-Me)}-T[dR]DG[dNMeF]L[dR]E[dY][dW]IT; ester 1-C) show?
## Result > 1500 nM

## Task For the compound CC(C)C[C@@H](O)CC(=O)N[C@@H]1C(=O)N[C@H](CCCNC(=N)N)C(=O)N[C@@H](C)C(=O)NCC(=O)N(C)[C@H](Cc2ccccc2)C(=O)N[C@@H](CC(C)C)C(=O)N[C@H](CCCNC(=N)N)C(=O)N[C@@H](CCC(=O)O)C(=O)N[C@H](Cc2ccc(O)cc2)C(=O)N[C@H](Cc2c[nH]c3ccccc23)C(=O)N[C@@H](Cc2ccc(O)cc2)C(=O)N[C@@H]([C@@H](C)O)C(=O)O[C@@H]1C [Peptide A15] ({Hexanoyl(3R-OH,5-Me)}-T[dR]AG[dNMeF]L[dR]E[dY][dW]YT; ester 1-C) , what EC50 is on record?
## Result 889 nM
